Target: N-terminally GST-tagged DLK (catalytic domain amino acid 1-520) (Homo sapiens, UniProt Q12852)
Construct: N-terminally GST-tagged DLK (catalytic domain amino acid 1-520)
Sequence (Q12852 1-520): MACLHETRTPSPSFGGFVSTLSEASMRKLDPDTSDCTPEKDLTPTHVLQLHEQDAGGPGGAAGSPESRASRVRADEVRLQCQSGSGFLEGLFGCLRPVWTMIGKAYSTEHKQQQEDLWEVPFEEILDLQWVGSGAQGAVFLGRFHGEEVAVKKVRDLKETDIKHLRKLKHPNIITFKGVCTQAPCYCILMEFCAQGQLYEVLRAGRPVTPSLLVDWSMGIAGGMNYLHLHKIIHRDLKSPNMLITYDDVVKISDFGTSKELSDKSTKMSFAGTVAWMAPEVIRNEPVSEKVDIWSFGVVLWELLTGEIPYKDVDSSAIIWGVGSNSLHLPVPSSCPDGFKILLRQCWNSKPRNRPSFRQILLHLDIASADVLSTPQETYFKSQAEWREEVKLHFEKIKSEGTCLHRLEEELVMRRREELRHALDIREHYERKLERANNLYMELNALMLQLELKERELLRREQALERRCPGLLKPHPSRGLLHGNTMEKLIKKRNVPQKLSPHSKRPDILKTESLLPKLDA
Test: DLK TR-FRET inhibition assay
Settings: 5 nM GST-DLK, 40 nM HIS-MKK4 K131M substrate, 30 μM ATP, 60 minutes at ambient temperature
valueType: pKi
The scale used: pKi is minus the common logarithm of the concentration in molar units.

Some compounds with known pKi results, for comparison:
Documented pKi of COCC1(F)C[C@@H]2[C@H](C1)[C@H]2c1cc(-c2cnc(N)c(C(F)(F)F)c2)nn1C(C)C (stereo partly drawn) : 8.17

Documented pKi of CC(C)n1nc(-c2cnc(N)c(C(F)(F)F)c2)cc1[C@H]1[C@@H]2CC(N3CC4COCC4C3)C[C@@H]21 (single isomer, unassigned) [compound 277] : 8.64

Documented pKi of CO[C@H]1CCCN([C@@H]2C[C@@H]3[C@H](C2)[C@H]3c2cc(-c3cnc(N)c(C(F)(F)F)c3)nn2C(C)C)C1 : 8.11

Documented pKi of CC(C)n1nc(-c2cnc(N)c(C(F)(F)F)c2)cc1[C@H]1[C@@H]2C[C@@H](N)C[C@@H]21 : 8.74

Documented pKi of CC(C)n1nc(-c2cnc(N)c(C(F)(F)F)c2)cc1[C@H]1[C@@H]2CC(C#N)C[C@@H]21 (single isomer, unassigned) [compound 191] : 8.11

Now look at this entry.
Documented pKi of CC(C)n1nc(-c2cnc(N)c(OC(F)F)c2)cc1[C@H]1[C@@H]2C[C@H](N3CC(F)(F)C3)C[C@@H]21 : 8.52

Hello, the source for this data is patent US9365583B2, in case you need it.
